# test target: KRAS (WT) (Homo sapiens, UniProt P01116)
# Construct: Biotinylated KRAS protein amino acids 1-169 (produced at Erasca); made in house
# Sequence (P01116 1-169 isoform P01116-2): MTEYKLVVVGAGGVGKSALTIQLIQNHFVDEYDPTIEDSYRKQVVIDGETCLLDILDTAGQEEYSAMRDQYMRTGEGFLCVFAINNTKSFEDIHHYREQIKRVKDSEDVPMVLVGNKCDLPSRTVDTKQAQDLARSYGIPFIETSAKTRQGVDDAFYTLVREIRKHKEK
# assay info: In-vitro RAS-RAF binding assay (RRB), HTRF/FRET
# Assay type: biochemical
# test context: Table 2, average of multiple runs of each compound; read-out: Inhibition of RAS-RAF Binding (in-vitro) KRAS (WT) IC50
Record form. Attribute: IC50. Fill in for each entry.
Give bare numbers, in µM.

Look over these answered cases.
1. C#Cc1c(F)ccc2cc(O)cc(-c3ncc4c(N5CC6CCC(C5)N6)nc(OC[C@@H]5CCCN5CCCOCCC(=O)N[C@H](C(=O)N5C[C@H](O)C[C@H]5C(=O)N[C@@H](C)c5ccc(-c6c(Cl)ccc(Cl)c6Cl)cc5)C(C)(C)C)nc4c3F)c12 [Example 57] = 0.118
2. C#Cc1c(F)ccc2cc(O)cc(-c3ncc4c(N5CC6CCC(C5)N6)nc(OC[C@@H]5CCCN5CCCOCCC(=O)N[C@H](C(=O)N5C[C@H](O)C[C@H]5C(=O)N[C@@H](C)c5ccc(-c6c(F)ccc(F)c6F)cc5)C(C)(C)C)nc4c3F)c12 [Example 44] = 0.0343
3. C#Cc1c(F)ccc2cc(O)cc(-c3ncc4c(N5CC6CCC(C5)N6)nc(OC[C@@H]5CCCN5CCCOCCC(=O)N[C@H](C(=O)N5C[C@H](O)C[C@H]5C(=O)N[C@@H](C)c5ccc(-c6c(C)ccc(C)c6C)cc5)C(C)(C)C)nc4c3F)c12 [Example 56] = 0.0657
4. C#Cc1c(F)ccc2cc(O)cc(-c3ncc4c(N5CC6CCC(C5)N6)nc(OC[C@@H]5CCCN5CCCOCCC(=O)N[C@H](C(=O)N5C[C@H](O)C[C@H]5C(=O)N[C@@H](C)c5ccc(-c6c(F)c(F)c(F)c(F)c6F)cc5)C(C)(C)C)nc4c3F)c12 [Example 59] = 0.0731
5. Cc1ccccc1-c1ccc([C@H](C)NC(=O)[C@@H]2C[C@@H](O)CN2C(=O)[C@@H](NC(=O)CCOCCCN2CCC[C@H]2COc2nc(N3CC4CCC(C3)N4)c3cc(Cl)c(-c4ccc(F)c5sc(N)c(C#N)c45)c(F)c3n2)C(C)(C)C)cc1 [Example 26] = 0.0918
6. C#Cc1c(F)ccc2cc(O)cc(-c3ncc4c(N5CC6CCC(C5)N6)nc(OC[C@@H]5CCCN5CCCOCCC(=O)N[C@H](C(=O)N5C[C@H](O)C[C@H]5C(=O)N[C@@H](C)c5ccc(-c6c(Cl)cccc6Cl)cc5)C(C)(C)C)nc4c3F)c12 [Example 45] = 0.0449

I'm hoping you can list IC50 for every compound here, please.
1. Cc1cc(N)nc(-c2c(Cl)cc3c(N4CC5CCC(C4)N5)nc(OC[C@@H]4CCCN4CCCOCCC(=O)N[C@H](C(=O)N4C[C@H](O)C[C@H]4C(=O)N[C@@H](C)c4ccc(-c5scnc5C)cc4)C(C)(C)C)nc3c2F)c1C(F)(F)F [Example 1]
2. C#Cc1c(F)ccc2cc(O)cc(-c3ncc4c(N5CC6CCC(C5)N6)nc(OC[C@@H]5CCCN5CCCOCC(=O)N[C@H](C(=O)N5C[C@H](O)C[C@H]5C(=O)N[C@@H](C)c5ccc(-c6c(F)ccc(F)c6F)cc5)C(C)(C)C)nc4c3F)c12 [Example 53]

**Result**
1: 0.799; 2: 0.123

Entry source: patent US20240293558A1
